Measured pEC50, listed per entry.
# test-system: TRPML2 (Homo sapiens)
# Construct: expressed in transfected cells
# Sequence (Q8IZK6 whole entry): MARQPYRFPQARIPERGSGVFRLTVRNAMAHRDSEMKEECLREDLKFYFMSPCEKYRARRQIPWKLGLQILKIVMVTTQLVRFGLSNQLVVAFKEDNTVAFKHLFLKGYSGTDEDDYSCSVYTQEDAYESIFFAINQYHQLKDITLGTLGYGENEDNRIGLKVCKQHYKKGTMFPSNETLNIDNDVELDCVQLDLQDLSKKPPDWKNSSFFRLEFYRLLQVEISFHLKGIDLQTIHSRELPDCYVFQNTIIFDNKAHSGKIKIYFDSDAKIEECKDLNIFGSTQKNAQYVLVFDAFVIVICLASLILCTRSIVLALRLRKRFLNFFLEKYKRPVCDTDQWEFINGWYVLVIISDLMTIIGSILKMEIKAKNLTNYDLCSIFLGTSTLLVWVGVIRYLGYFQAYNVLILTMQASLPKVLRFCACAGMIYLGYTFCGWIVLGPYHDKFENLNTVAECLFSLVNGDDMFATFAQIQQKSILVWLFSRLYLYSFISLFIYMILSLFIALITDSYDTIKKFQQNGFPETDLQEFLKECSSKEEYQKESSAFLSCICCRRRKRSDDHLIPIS
# protocol-summary: Fluorescent TRPML2 assay (performed as for TRPML1, substituting the TRPML2 subtype)
# Type: cell-based
# test-settings: fluorescent calcium assay
pEC50: −log10 of the molar value.

IN: Would you kindly share the measured pEC50 for C[C@@H]1CN(c2ncnc3c2c(-c2ccccc2F)cn3-c2cnn(C)c2)[C@@H](C)CN1C(=O)OC(C)(C)C(F)(F)F ?
OUT: 6.30 to 7.00

IN: What value of pEC50 has been recorded for this entry: Cc1cc(C#N)cc(-n2cc(-c3ccccc3F)c3c(N4CCN(C(=O)OC(C)(C)C)C[C@@H]4C)ncnc32)n1
OUT: > 7.00

IN: Given the entry Cc1nc(-n2cc(-c3ccccc3F)c3c(N4CCN(C(=O)OC(C)(C)C)C[C@@H]4C)ncnc32)sc1C#N , report its measured pEC50.
OUT: > 7.00

IN: What value of measured pEC50 is listed for C[C@H]1CN(C(=O)OC(C)(C)C)CCN1c1ncnc2c1c(-c1ccncc1)cn2-c1cc(C#N)ccn1 ?
OUT: > 7.00

Hello, the source for this data is patent US20250136606A1, in case you need it.
